- System: Human venous whole blood (IFN-γ)
- EXPERIMENT_DESCRIPTION: Human whole blood IFN-γ assay
- Assay type: cell-based
- RUN_PARAMETERS: Homo sapiens, 24 h, human whole blood, anti-CD3 plus anti-CD28, 24 hours; read-out: INFg Whole Blood Normalized Agonist EC50
- Procedure: Assay 10: Human Whole Blood IFN-γ Assay Human venous whole blood (22.5 μL per well), obtained from healthy donors, was pre-treated with compounds for one hour at 37° C. in a humidified 95% air/5% CO2 incubator. The blood was stimulated with 2.5 μL anti-human CD3 and anti-CD28 mAb at a final concentration of 1 μg/mL each for 24 hours at 37° C. IFN-γ in the supernatants was measured using AlphLISA kit (Cat #AL217).
Answer each item with its documented EC50.
Give bare numbers, in nM.

{"COMPOUND": "Cn1c(=O)c(C#N)c(N2CCC(Oc3ccc(OC(F)(F)F)cc3)CC2)c2nc(C#N)ccc21 [Example 50]", "RECORDED_METRIC": "EC50", "UNITS_OF_MEASURE": "nM", "REPORTED": 5000}
{"COMPOUND": "Cc1cccc(O[C@@H]2CCN(c3cc(=O)n(C)c4ccc(C#N)nc34)C[C@H]2C)c1 (single isomer, unassigned) [Example 108]", "RECORDED_METRIC": "EC50", "UNITS_OF_MEASURE": "nM", "REPORTED": 3000}
{"COMPOUND": "CC[C@@H]1CN(c2cc(=O)n(C)c3ccc(C#N)nc23)CC[C@H]1Oc1ccc(OC(C)(C)C)cc1 (single isomer, unassigned) [Example 159]", "RECORDED_METRIC": "EC50", "UNITS_OF_MEASURE": "nM", "REPORTED": 4200}
{"COMPOUND": "CCC(C)(C)c1ccc(O[C@H]2CCN(c3cc(=O)n(C)c4ccc(C#N)nc34)C[C@H]2C)cc1 [Example 169]", "RECORDED_METRIC": "EC50", "UNITS_OF_MEASURE": "nM", "REPORTED": 1700}
{"COMPOUND": "CC[C@@H]1CN(c2cc(=O)n(C)c3ccc(C#N)nc23)CC[C@H]1Oc1ccc(C(C)(C)CC)cc1 (racemic) [Example 149]", "RECORDED_METRIC": "EC50", "UNITS_OF_MEASURE": "nM", "REPORTED": 1400}
{"COMPOUND": "C[C@@H]1CN(c2cc(=O)n(C)c3ccc(C#N)nc23)CC[C@@H]1Oc1cccc(C2CC2)c1 [Example 179]", "RECORDED_METRIC": "EC50", "UNITS_OF_MEASURE": "nM", "REPORTED": 2400}

The record that follows has no EC50 shown yet.
Param item: Cn1c(=O)c(C#N)c(N2CCC(Oc3ccc(OC(F)(F)F)c(F)c3)CC2)c2nc(Cl)ccc21 [Example 17] ; param system: Human venous whole blood (IFN-γ); output EC50: 10000

----------
Please respond with reported pIC50 for every item in the list.
- TARGET_OF_ASSAY: Human DGKα(9-727) (Homo sapiens (Human), UniProt P23743)
- Sequence (P23743 whole entry, looked up): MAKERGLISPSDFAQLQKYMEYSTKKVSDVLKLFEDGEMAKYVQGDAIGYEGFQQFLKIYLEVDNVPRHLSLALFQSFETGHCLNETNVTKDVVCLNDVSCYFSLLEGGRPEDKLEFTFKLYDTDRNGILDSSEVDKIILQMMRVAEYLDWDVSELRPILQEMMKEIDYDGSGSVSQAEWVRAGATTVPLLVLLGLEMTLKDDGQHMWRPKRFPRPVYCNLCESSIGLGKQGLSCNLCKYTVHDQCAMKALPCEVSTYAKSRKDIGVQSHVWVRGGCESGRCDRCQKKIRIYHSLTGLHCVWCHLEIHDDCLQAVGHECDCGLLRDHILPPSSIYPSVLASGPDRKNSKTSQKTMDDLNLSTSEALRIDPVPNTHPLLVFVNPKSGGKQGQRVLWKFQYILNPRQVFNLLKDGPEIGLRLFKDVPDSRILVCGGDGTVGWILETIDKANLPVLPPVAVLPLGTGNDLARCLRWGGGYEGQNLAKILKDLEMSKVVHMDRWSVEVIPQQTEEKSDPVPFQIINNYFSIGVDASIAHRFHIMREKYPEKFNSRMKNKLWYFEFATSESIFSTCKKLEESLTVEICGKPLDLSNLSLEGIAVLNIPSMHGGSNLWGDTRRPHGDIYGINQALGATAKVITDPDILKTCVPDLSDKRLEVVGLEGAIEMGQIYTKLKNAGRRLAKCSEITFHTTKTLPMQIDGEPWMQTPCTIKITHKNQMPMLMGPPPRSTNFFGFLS
- EXPERIMENT_DESCRIPTION: biochemical
- RUN_PARAMETERS: Table A; liposome (LIPGLO) assay; read-out: DGKα
One number for each entry, as −log10 of the molar value.

{"MOLECULE": "CC(C)Oc1ccc(O[C@H]2CCN(c3cc(=O)n(C)c4ccc(C#N)nc34)C[C@@H]2O)nc1 (single isomer, unassigned) [Example 268]", "REPORTED": 5.89}
{"MOLECULE": "CCC(C)(C)c1ccc(O[C@@H]2CCN(c3c(C#N)c(=O)n(C)c4ccc(C#N)nc34)C[C@H]2C)cc1 (single isomer, unassigned)", "REPORTED": 5.80}

We now examine a further molecule.
Lookup result for C[C@H]1CN(c2cc(=O)n(C)c3ccc(C#N)nc23)[C@@H](C)CC1N(C)c1ccc(C(F)(F)F)cc1 (single isomer, unassigned) [Example 318] ; measured pIC50: 3.89
